# Test system: genome-length HCV-RNA (AH1 strain of genotype 1b) replication in HuH-7-derived AH1R cells
# experiment-description: AH1R RL assay
# Format: cell-based
# run-parameters: Hepatitis C virus, HuH-7, HCV strain AH1, 72 hrs
metric: EC50 (nM)
Answers are plain numbers, in nM.

INSERT INTO assay_data (molecule, units, endpoint_result) VALUES
  ('OCCCCCCC1COOC2(CCCCCCCCCCC2)OOC1', 'nM', 140);

Consider now this further molecule.
Problem: Identify measured EC50 associated with C1CCCCCC2(CCCCC1)OOCCCOO2 [N-89, 1,2,6,7-Tetraoxaspiro[7.11]nonadecane]
Result: 25
